tested on: A549 NSCLC; test: NCI tumour cell line growth inhibition, 48 h
Known TGI of a selection of compounds

{"Compound": "CC(=O)C1C(=O)C(=O)N(c2ccccc2N2C(=O)C(=O)C(C(C)=O)C2=O)C1=O (stereo not drawn)", "TGI": "> 100 µM"}
{"Compound": "C[C@H]1[C@H](C)CC[C@]2(C(=O)O)CC[C@]3(C)C(=CC[C@@H]4[C@@]5(C)CC[C@H](OC(=O)/C=C/c6ccc(O)cc6)C(C)(C)[C@@H]5CC[C@]43C)[C@H]12", "TGI": "12.7 µM"}
{"Compound": "C/C(=N\\NC(=O)c1ccccc1O)c1cccc(/C(C)=N/NC(=O)c2ccccc2O)n1", "TGI": "> 100 µM"}
{"Compound": "Fc1ccc(-c2nnc3sc(COc4ccccc4Cl)nn23)cc1Cl", "TGI": "> 100 µM"}
{"Compound": "Cc1ccc(S(=O)(=O)SCc2ccccc2CSS(=O)(=O)c2ccc(C)cc2)cc1", "TGI": "> 100 µM"}
{"Compound": "COc1cc(S(=O)(=O)Nc2nc(-c3ccc(N)cc3)cs2)ccc1Cl", "TGI": "> 100 µM"}
{"Compound": "c1ccc(N=c2sc3ccccc3sc2=Nc2ccccc2)cc1", "TGI": "9.1 µM"}
{"Compound": "CN(C)C(=O)c1cc2cnc(Nc3ccc(-c4csc5c(=O)cc(N6CCNCC6)oc45)cc3)nc2n1C1CCCC1", "TGI": "3.81 µM"}
{"Compound": "CN(C)c1nc(=NCc2cccs2)ss1", "TGI": "> 10 µM"}
{"Compound": "CN(C)/C=C(\\C(=O)c1ccccc1)n1nc(-c2ccccc2)cc1-c1ccccc1", "TGI": "> 10 µM"}
{"Compound": "S=C(N/N=C(/c1ccccc1)c1ccccn1)Nc1ccc(Cl)cc1", "TGI": "14 µM"}
{"Compound": "CC(C)=CCC[C@](C)(O[C@@H]1O[C@H](CO)[C@@H](O)[C@H](O)[C@H]1O)[C@H]1CC[C@]2(C)[C@@H]1[C@H](O)C[C@@H]1[C@@]3(C)CC[C@H](O)C(C)(C)[C@@H]3[C@@H](O[C@@H]3O[C@H](CO)[C@@H](O)[C@H](O)[C@H]3O)C[C@]12C", "TGI": "> 100 µM"}
{"Compound": "O=C1OC(C2=CC(=O)c3ccccc3C2=O)C(Cl)=C1Cl (stereo not drawn)", "TGI": "> 100 µM"}
{"Compound": "Cc1cc(=O)oc2c1cc(OCC(=O)OCCN1CCCCC1)c1occ(C)c12", "TGI": "> 100 µM"}
{"Compound": "COc1ccc(OC)c(C#Cc2ccc(OC)c(C(=O)NCCc3ccc(F)cc3)c2)c1", "TGI": "> 100 µM"}
{"Compound": "N#CCN1CCOCCOCCN(CC#N)CCOCCOCC1", "TGI": "> 100 µM"}
{"Compound": "O=C1c2cc3c(cc2[C@@H]2[C@H]1c1ccc([N+](=O)[O-])cc1C(=O)N2CCCCl)OCO3", "TGI": "> 100 µM"}
{"Compound": "COc1cc(Br)cc2nc(-c3cccs3)oc12", "TGI": "> 100 µM"}

Data credit: PubChem BioAssay (NCI)
